Assay: NCI Yeast Anticancer Drug Screen. Data for the sgs1 strain (AID 173);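 further: 0% = growth of vehicle-only control cultures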
Conditions: S. cerevisiae sgs1 mutant, at 1.2 µM, hits give high values
About 79,000 compounds went through this panel and 15% of them were active in at least one assay; those are over-represented in the sample as a whole. Activity calls are given as the source filed them. No stated cut-off is given here; in the data, active means growth inhibition above about 70%; inactive means the rest.
Below, each of the compounds is paired with its reported growth inhibition value.
ENDPOINT_NAME: growth inhibition

- Cc1c2ccccc2cc2ccccc12: -14% (inactive)
- NCCc1ccc(OCc2ccccc2)c(OCc2ccccc2)c1: -8% (inactive)
- COC(=O)C1=C(C(=O)OC)C2OC1c1cc3ccccc3cc12: 24% (inactive)

---

Assay: NCI Yeast Anticancer Drug Screen. Data for the mec2-1 strain (AID 157)
Conditions: S. cerevisiae mec2-1 strain, at 50.0 µM (retest, dose inferred, filed as 5.0)
About 79,000 compounds went through this panel and 15% of them were active in at least one assay; those are over-represented in the sample as a whole. Calls of active or inactive are those of the source. No stated cut-off is given here; in the data, active means growth inhibition above about 70%; inactive means the rest.
Outcome codes: YES = active, NO = inactive

- Nc1c(Br)cc(Br)c2c1C(=O)c1ccccc1C2=O: NO
- COc1ccc(CC2C(=O)NC(C)C(=O)N(C)C3C(=O)N(C)C(Cc4ccc(O)c(c4)Oc4ccc(cc4)C3O)C(=O)NC(C)C(=O)NC(C)C(=O)N2C)cc1 (configuration not stated): NO
- O=C(O)CCCOc1cc(Cl)c(Cl)cc1Cl: YES
- c1cc2c(cc1C1OC[C@H]3[C@@H](c4ccc5c(c4)OCO5)OC[C@@H]13)OCO2 (some centres not stated): NO
- CCNC(=O)O/N=C1/C=C2CC[C@@H]3C(CC[C@@]4(C)C3CC[C@@H]4OC(=O)NCC)[C@@]2(C)CC1 (some centres not stated): NO
- O=[N+]([O-])[O][Tl]([c]1ccccc1)[c]1ccccc1: NO
- CC1=[N+](Cc2cc(C)cc(C)c2O)CCCC1: NO
